This section presents compounds with their documented IC50 values.
Target: c-Met (Homo sapiens)
Construct: Kinases are expressed as either kinase domains or full length constructs; made in house
Sequence (P08581 25-1390): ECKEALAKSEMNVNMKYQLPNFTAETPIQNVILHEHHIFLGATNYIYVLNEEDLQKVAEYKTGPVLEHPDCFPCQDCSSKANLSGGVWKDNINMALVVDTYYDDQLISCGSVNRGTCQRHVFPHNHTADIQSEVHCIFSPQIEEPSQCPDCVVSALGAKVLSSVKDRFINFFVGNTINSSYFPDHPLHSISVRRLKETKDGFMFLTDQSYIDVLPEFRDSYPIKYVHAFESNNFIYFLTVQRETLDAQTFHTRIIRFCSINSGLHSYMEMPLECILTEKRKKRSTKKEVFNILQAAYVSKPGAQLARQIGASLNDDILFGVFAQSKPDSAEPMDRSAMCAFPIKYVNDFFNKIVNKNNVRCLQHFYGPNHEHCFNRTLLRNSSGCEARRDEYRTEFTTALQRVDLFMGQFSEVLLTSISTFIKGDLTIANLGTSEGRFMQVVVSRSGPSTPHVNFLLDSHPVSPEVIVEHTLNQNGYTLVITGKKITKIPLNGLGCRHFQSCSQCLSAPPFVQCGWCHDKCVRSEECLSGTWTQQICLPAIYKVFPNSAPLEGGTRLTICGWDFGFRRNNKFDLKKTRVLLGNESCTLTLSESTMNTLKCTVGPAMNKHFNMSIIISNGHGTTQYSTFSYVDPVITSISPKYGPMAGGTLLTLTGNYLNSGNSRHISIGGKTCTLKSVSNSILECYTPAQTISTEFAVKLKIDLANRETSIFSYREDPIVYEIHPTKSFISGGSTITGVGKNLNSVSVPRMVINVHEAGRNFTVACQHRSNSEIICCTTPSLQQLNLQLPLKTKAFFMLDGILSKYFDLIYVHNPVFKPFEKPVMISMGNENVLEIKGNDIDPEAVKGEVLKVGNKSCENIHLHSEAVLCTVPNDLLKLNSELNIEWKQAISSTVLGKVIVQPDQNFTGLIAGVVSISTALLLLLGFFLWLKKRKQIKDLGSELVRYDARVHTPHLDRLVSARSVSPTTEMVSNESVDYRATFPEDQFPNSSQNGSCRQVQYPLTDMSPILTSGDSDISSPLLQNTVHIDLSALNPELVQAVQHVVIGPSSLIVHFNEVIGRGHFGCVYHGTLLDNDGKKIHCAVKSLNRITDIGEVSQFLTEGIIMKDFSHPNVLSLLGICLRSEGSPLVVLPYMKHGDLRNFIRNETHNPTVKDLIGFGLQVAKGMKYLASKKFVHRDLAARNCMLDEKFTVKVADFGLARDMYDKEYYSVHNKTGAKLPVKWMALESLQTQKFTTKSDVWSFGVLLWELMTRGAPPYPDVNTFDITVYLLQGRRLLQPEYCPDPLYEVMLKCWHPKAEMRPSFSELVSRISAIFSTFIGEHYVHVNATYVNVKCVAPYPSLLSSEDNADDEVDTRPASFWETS
Experiment: Kinase inhibition assay (33P transfer), c-Met
Type: biochemical
Conditions: Table 2, kinase inhibition class; read-out: Met-1
Description: The inhibitor compounds described herein are screened in the following manner. […] Kinases are expressed as either kinase domains or full length constructs fused to glutathione S-transferase (GST) or polyHistidine tagged fusion proteins in either E. colior Baculovirus-High Five expression systems. […] Kinase activity and inhibition are measured essentially by established protocols (Braunwalder et al., 1996). […]
READOUT: IC50

COc1cc(Nc2ncnc(-n3ccc4cc(Cl)ccc43)n2)cc(OC)c1OC [Compound 198] = > 10.9 µM
COc1cc(Nc2ncnc(N(C)c3ccc4c(cnn4Cc4ccccc4)c3)n2)cc(OC)c1OC [Compound 566] = 0.804 to 4.82 µM
COc1cc(Nc2ncnc(N3CCN(c4ncccn4)CC3)n2)cc(OC)c1OC [Compound 214] = 5.65 to 8.25 µM
CCOc1ccc(Nc2ncnc(-n3c(N)nc4ccccc43)n2)cc1OCC [Compound 299] = 1.02 to 6.13 µM
NC(=O)c1ccc(Nc2ncnc(-n3c(=O)[nH]c4ccccc43)n2)cc1 [Compound 419] = > 13 µM
COc1cc(Nc2ncnc(-n3c(NCCc4ccncc4)nc4ccccc43)n2)cc(OC)c1OC [Compound 948] = > 9.03 µM
COc1cc(Nc2ncnc(-c3ccc(F)cc3)n2)cc(OC)c1OC [Compound 222] = > 12.6 µM
COc1cc(Nc2ncnc(-n3nc(-c4ccccc4)cc3N)n2)cc(OC)c1OC [Compound 520] = > 10.7 µM
CC(=O)NS(=O)(=O)c1ccc(Nc2ncnc(-n3c(=O)[nH]c4ccccc43)n2)cc1 [Compound 452] = > 10.6 µM
Nc1nc2ccccc2n1-c1ncnc(Nc2cccc(CC(=O)NCc3ccccn3)c2)n1 [Compound 956] = 7.75 to 9.97 µM
COc1cc(Nc2ncnc(Nc3ccc(C)c(F)c3)n2)cc(OC)c1OC [Compound 300] = 6.23 to 9.08 µM
COc1cc(Nc2ncnc(Nc3ccc(C)c(O)c3)n2)cc(OC)c1OC [Compound 83] = > 11.7 µM
Clc1cccc(Nc2ncnc(-n3cccc3)n2)c1 [Compound 275] = 12.9 to 16.6 µM
COC(=O)c1cccc(Nc2ncnc(Nc3cc(-c4ccco4)n[nH]3)n2)c1 [Compound 344] = 1.06 to 6.36 µM
COc1cc(Nc2ncnc(-n3c(NC4CCCc5ccccc54)nc4ccccc43)n2)cc(OC)c1OC (centres unmarked) [Compound 1043] = > 8.59 µM
COc1cc(Nc2ncnc(Nc3cc(-c4cccc(C)c4)n[nH]3)n2)cc(OC)c1OC [Compound 1001] = < 0.923 µM
COc1cc(Nc2ncnc(Nc3ccc(F)cc3)n2)cc(OC)c1OC [Compound 303] = > 12.1 µM

###

This section presents compounds with their documented pIC50 values.
molecular target: IGFR-1 (Homo sapiens, UniProt P08069); construct: Kinases are expressed as either kinase domains or full length constructs; made in house; assay: Kinase inhibition assay (33P transfer), IGFR-1; type: biochemical; conditions: Table 2, class symbols A-E
Sequence (P08069 31-1367): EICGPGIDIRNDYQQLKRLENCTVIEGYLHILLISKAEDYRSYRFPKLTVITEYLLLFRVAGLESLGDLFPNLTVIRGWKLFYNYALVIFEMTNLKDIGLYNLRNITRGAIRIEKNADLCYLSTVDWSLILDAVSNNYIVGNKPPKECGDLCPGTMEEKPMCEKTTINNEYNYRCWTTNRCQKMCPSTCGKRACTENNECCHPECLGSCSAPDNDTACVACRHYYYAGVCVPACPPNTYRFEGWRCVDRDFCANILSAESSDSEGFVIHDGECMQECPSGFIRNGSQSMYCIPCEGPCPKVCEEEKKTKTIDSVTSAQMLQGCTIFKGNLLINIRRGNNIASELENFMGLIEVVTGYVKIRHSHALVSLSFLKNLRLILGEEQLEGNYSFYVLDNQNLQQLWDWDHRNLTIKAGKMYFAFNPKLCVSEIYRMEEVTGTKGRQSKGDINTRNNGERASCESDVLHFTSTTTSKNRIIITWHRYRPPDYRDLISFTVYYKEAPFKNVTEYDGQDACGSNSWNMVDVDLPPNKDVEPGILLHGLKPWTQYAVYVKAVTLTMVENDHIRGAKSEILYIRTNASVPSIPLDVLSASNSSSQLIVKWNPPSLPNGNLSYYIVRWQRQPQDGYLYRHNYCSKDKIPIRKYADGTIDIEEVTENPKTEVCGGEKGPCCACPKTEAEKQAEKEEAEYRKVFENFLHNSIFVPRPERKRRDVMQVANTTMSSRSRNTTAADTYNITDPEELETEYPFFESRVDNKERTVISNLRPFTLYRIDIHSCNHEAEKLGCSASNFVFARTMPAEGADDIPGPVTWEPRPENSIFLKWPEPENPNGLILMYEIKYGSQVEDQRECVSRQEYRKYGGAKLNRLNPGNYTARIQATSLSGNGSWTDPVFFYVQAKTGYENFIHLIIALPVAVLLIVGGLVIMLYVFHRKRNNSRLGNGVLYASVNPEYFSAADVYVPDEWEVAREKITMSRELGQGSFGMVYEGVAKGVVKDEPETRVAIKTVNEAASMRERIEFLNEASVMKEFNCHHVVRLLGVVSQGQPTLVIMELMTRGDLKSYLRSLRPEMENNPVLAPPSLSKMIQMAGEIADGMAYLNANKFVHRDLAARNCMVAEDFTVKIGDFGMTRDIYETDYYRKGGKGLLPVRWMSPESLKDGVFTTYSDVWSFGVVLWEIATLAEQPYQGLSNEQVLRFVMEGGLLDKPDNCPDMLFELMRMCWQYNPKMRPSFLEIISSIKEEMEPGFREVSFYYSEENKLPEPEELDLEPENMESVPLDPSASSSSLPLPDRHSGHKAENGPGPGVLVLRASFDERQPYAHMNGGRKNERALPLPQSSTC
pIC50: −log10 of the molar value.
READOUT: pIC50

COC(=O)c1ccc(-c2cc(Nc3ncnc(NCCCO)n3)[nH]n2)cc1 = < 4.91
COc1cc(Nc2ncnc(Nc3cc(-c4ccc(C(=O)N(C)C)cc4)n[nH]3)n2)cc(OC)c1OC = > 6.09
O=C(O)/C=C/c1ccc(Nc2ncnc(Nc3cc(-c4ccco4)[nH]n3)n2)cc1 = 5.21 to 5.99
COC(=O)c1ccc(-c2cc(Nc3ncnc(Nc4cccc5ncccc45)n3)[nH]n2)cc1 = 5.10 to 5.26
COc1cc(Nc2ncnc(-c3cccnc3Nc3cccc(Oc4ccccc4)c3)n2)cc(OC)c1OC = < 5.06
COc1ccc(Nc2ncnc(Nc3cccc(C#N)c3)n2)cc1OC = < 4.89
COc1cc(Nc2ncnc(N3CCCc4cc(Cl)ccc43)n2)cc(OC)c1OC = < 4.98
CN(c1cccc(Cl)c1)c1ncnc(Nc2cc(Cl)c(Cl)c(Cl)c2)n1 = < 4.96

###

target: ErbB4 (Homo sapiens)
Sequence (Q15303 26-1308, species assumed): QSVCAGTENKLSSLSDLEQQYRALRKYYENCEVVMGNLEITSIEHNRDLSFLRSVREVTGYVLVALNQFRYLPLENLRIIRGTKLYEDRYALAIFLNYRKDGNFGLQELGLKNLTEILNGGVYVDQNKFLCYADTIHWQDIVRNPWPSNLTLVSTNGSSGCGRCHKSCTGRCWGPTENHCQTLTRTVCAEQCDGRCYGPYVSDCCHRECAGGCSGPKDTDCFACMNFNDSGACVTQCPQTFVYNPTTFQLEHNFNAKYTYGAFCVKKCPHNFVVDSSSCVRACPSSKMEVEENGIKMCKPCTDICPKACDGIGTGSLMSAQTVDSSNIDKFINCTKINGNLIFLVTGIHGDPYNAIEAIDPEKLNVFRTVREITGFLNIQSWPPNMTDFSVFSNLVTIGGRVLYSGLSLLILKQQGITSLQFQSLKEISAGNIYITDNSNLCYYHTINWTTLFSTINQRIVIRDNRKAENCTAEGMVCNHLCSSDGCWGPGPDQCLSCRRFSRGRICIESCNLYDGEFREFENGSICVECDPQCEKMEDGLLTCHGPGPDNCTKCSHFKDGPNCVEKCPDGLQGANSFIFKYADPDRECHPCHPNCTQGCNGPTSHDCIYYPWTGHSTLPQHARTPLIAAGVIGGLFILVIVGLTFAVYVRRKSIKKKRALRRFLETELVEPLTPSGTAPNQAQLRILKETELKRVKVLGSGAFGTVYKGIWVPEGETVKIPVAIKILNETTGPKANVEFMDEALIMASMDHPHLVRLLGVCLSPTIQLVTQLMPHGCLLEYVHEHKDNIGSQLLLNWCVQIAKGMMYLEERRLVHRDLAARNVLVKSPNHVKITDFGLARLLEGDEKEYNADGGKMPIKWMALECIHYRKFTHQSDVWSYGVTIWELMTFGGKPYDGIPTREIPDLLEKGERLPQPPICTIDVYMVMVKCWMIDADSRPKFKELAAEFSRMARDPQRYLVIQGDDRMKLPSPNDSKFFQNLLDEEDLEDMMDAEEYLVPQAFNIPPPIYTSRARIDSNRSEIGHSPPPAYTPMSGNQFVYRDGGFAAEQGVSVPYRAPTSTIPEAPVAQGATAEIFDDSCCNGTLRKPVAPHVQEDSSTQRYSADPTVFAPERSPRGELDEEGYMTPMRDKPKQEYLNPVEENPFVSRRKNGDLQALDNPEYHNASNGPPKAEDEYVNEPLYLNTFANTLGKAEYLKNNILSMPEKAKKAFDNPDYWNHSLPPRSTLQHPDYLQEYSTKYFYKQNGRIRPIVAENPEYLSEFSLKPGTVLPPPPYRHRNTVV
pIC50: −log10 of the molar value.
This section presents molecules with their documented pIC50 values.
READOUT: pIC50

COc1cc(Nc2ncnc(-c3c(O)[nH]c4ccc(Cl)cc34)n2)cc(OC)c1OC = < 4.98
COc1cc(Nc2ncnc(-n3c(N)nc4cc(C(F)(F)F)ccc43)n2)cc(OC)c1OC = < 5.01
COc1cc(Nc2ncnc(Nc3ccc(C)c([N+](=O)[O-])c3)n2)cc(OC)c1OC = < 4.96
COc1cc(Nc2ncnc(-n3c(NCc4ccccn4)nc4ccccc43)n2)cc(OC)c1OC = < 5.03
COc1cc(Nc2ncnc(Nc3ccc(C)c(NS(C)(=O)=O)c3)n2)cc(OC)c1OC = 5.28 to 6.06
CC(=O)NCc1ccc(Nc2ncnc(Nc3cc(-c4ccco4)n[nH]3)n2)cc1 = 5.21 to 5.99
COc1cccc(Nc2ncnc(Nc3cc(OC)c(OC)c(OC)c3)n2)c1 = 4.93 to 5.04
COc1cc(Nc2ncnc(-n3c(=O)[nH]c4ccccc43)n2)cc(OC)c1OCCN1CCOCC1 = 5.15 to 5.31

###

target: PDGFRB (Homo sapiens); construct: Kinases are expressed as either kinase domains or full length constructs; made in house; assay: Kinase inhibition assay (33P transfer), PDGFRB; format: biochemical; details: read-out: PDGFRB-1
Sequence (P09619 33-1106, species assumed): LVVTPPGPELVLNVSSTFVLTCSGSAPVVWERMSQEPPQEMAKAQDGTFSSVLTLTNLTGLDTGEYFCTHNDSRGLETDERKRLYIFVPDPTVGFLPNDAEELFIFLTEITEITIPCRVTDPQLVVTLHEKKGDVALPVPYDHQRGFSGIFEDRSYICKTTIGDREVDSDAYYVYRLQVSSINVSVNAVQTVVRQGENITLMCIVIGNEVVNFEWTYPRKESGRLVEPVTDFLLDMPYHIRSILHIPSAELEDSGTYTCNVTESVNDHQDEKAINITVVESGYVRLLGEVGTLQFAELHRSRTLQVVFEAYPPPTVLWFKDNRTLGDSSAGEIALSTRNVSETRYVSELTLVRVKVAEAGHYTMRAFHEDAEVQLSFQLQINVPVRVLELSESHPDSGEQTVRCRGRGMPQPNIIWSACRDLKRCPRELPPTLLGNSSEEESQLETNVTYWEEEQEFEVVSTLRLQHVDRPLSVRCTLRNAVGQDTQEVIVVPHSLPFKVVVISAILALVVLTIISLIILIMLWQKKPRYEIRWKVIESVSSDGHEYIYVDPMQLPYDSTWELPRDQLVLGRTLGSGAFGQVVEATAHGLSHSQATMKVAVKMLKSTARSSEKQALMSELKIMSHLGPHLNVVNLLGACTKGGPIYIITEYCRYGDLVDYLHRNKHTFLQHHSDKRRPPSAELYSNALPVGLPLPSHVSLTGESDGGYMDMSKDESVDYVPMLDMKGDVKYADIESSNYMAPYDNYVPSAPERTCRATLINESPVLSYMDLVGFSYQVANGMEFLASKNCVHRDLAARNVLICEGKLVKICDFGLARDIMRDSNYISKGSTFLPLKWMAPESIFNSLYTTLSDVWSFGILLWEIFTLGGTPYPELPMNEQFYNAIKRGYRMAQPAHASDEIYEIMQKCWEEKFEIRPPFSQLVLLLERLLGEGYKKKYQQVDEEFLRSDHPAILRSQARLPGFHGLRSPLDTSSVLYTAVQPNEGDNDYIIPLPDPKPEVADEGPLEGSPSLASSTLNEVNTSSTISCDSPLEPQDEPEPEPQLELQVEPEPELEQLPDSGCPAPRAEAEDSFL
This section presents compounds with their documented IC50 values.
READOUT: IC50

COc1cc(Nc2ncnc(N(C)c3cccc4ccccc34)n2)cc(OC)c1OC [Compound 607] = 958 to 5750 nM
COc1cc(Nc2ncnc(Nc3ccc(O)cc3Cl)n2)cc(OC)c1OC [Compound 77] = < 991 nM
COc1cc(Nc2ncnc(-n3c(Nc4cccc(C(N)=O)c4)nc4ccccc43)n2)cc(OC)c1OC [Compound 377] = < 780 nM
COc1ccc(Nc2ncnc(Nc3ccc4[nH]ccc4c3)n2)cc1OC [Compound 115] = > 12400 nM
COc1cc(Nc2ncnc(-n3c(NCc4ccc(C)cc4)nc4ccccc43)n2)cc(OC)c1OC [Compound 516] = 7030 to 9040 nM
COc1cc(Nc2ncnc(-n3c(NCc4ccccn4)nc4ccccc43)n2)cc(OC)c1OC [Compound 414] = < 826 nM
COc1cc(Nc2ncnc(-n3ncc(-c4ccccc4)c3N)n2)cc(OC)c1OC [Compound 522] = 5720 to 8340 nM
COc1ccc2c(ccn2-c2ncnc(Nc3cc(OC)c(OC)c(OC)c3)n2)c1 [Compound 196] = < 982 nM
COc1cc(Nc2ncnc(Nc3ccc(C)cc3)n2)cc(OC)c1OC [Compound 930] = < 1090 nM
CC(=O)NCc1ccc(Nc2ncnc(Nc3cc(-c4ccco4)n[nH]3)n2)cc1 [Compound 443] = 1020 to 6150 nM
COc1cc(Nc2ncnc(N(C/C=C/c3ccccc3)c3ccc(Cl)cc3)n2)cc(OC)c1OC [Compound 56] = > 8930 nM
COc1ccc(Nc2ncnc(-n3c(N)nc4ccccc43)n2)cc1O [Compound 286] = 1140 to 6870 nM
COc1cc(Nc2ncnc(N(CC(=O)O)c3ccc4c(c3)OCO4)n2)cc(OC)c1OC [Compound 319] = > 9880 nM
COc1cc(Nc2ncnc(-n3c(NCc4ccc(F)cc4Cl)nc4ccccc43)n2)cc(OC)c1OC [Compound 951] = < 746 nM
COc1cc(Nc2ncnc(-n3c(NCc4ccccc4Cl)nc4ccccc43)n2)cc(OC)c1OC [Compound 943] = < 772 nM
COc1cc(Nc2ncnc(-n3c(Nc4cccc(C)c4)nc4ccccc43)n2)cc(OC)c1OC [Compound 386] = 827 to 4960 nM
COc1ccc(Nc2ncnc(Nc3cc(OC)c(OC)c(OC)c3)n2)cc1OC [Compound 36] = < 968 nM

###

target: PDGFRB (Homo sapiens); construct: Kinases are expressed as either kinase domains or full length constructs; made in house; assay: Kinase inhibition assay (33P transfer), PDGFRB; type: biochemical; conditions: read-out: PDGFRB-1
pIC50: −log10 of the molar value.
This section presents molecules with their documented pIC50 values.
READOUT: pIC50

COc1cc(Nc2ncnc(-n3ccc4c(OC)cccc43)n2)cc(OC)c1OC = 5.23 to 6.01
CCN(CC)CCOc1ccc(Nc2ncnc(-n3c(N)nc4ccccc43)n2)cc1OC = 5.27 to 6.05
COc1cc(Nc2ncnc(-c3ccccc3)n2)cc(OC)c1OC = 4.99 to 5.15
COc1cc(Nc2ncnc(Nc3cc(F)ccc3F)n2)cc(OC)c1OC = > 5.99
COc1cc(Nc2ncnc(-n3c(Nc4ccccc4C)nc4ccccc43)n2)cc(OC)c1OC = > 6.08
COCCOc1ccc(Nc2ncnc(Nc3ccc(C)c(O)c3)n2)cc1OC = > 6.00
Nc1nc2ccccc2n1-c1ncnc(Nc2ccccn2)n1 = < 4.83
COc1ccc(Nc2ncnc(-n3c(N)nc4ccccc43)n2)cc1OC = < 4.91
COc1cc(Nc2ncnc(-n3ccc4ccccc43)n2)cc(OC)c1OC = > 5.97
COc1ccc(Nc2ncnc(-n3c(N)nc4ccccc43)n2)cc1 = 5.14 to 5.92
CCN(CC)CCOc1cc(Nc2ncnc(Nc3cc(OC)c(OC)c(OC)c3)n2)ccc1OC = 5.32 to 6.10
COc1ccc(Nc2ncnc(N(CC(=O)O)c3ccc4c(c3)OCO4)n2)cc1OC = < 4.98
COc1cc(Nc2ncnc(-n3c(Nc4ccc5[nH]ccc5c4)nc4ccccc43)n2)cc(OC)c1OC = > 6.10
C#Cc1cccc(Nc2ncnc(Nc3ccc(OC)c(OC)c3)n2)c1 = < 4.89
NCc1ccc(Nc2ncnc(Nc3cc(-c4ccco4)n[nH]3)n2)cc1 = > 5.94
COc1cc(Nc2ncnc(Nc3cnc4ccccc4c3)n2)cc(OC)c1OC = 5.23 to 6.00
COc1cc(Nc2ncnc(Nc3nc4ccccc4n3C)n2)cc(OC)c1OC = 5.23 to 6.01
COc1cc(Nc2ncnc(Nc3ccc(OCc4ccccc4)cc3)n2)cc(OC)c1OC = > 6.06

The reported measurements were obtained from patent US7074789B2.
